# System: 454973-116-R2-J3-PDC spheroids, viability, % test/control;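 also: spheroids exposed to compounds for seven days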
# experimental details: Anticancer human tumor 454973-116-R2-J3-PDC patient-derived pancreatic carcinoma cell line growth inhibition [GQUAD]
# protocol conditions: curve of first compound; second compound 0.0316 µM; spheroids with HUVEC and MSC
pIC50: −log10 of the molar value.

compound: COc1ncnc(C2CC2)c1-c1ncc2cnn(Cc3ccc(-c4nc(C(F)(F)F)cn4C(C)C)cc3)c2n1 + Cc1[nH]c2ccc(F)cc2c1-c1nc2c3cccnc3c3ncccc3c2[nH]1
pIC50: < 5.00
//
compound: Nc1ccn(C2OC(CO)C(O)C2(F)F)c(=O)n1 (stereo not drawn) + Cc1cnc(CNC(=O)c2c(=O)c3ccc(N4CCCN(C)CC4)nc3n3c2sc2ccccc23)cn1
pIC50: > 7.50
//
compound: Cc1cccc(N(C)C(=O)C2C(O)CCN2c2nc(C)cc(C(F)(F)F)c2C#N)c1 (stereo not drawn) + CN(C)c1ccc(Nc2c3ccc(NC(=O)CCN4CCCC4)cc3nc3cc(NC(=O)CCN4CCCC4)ccc23)cc1
pIC50: < 5.00

Source listed as PubChem BioAssay AID2060508.
